# test.target: PTP1B (human recombinant) (Homo sapiens, UniProt P18031)
# Construct: purchased Biomol International LP (Plymouth Meeting, PA, USA)
# test.summary: PTP1B inhibitory assay using pNPP
# Format: biochemical
# condition.description: mean ± S.E.M of triplicate experiments; substrate pNPP
property.name: IC50 (µM)

1. COc1ccc([C@@H]2CC(=O)c3c(O)cc(O)cc3O2)cc1O ... 288
2. COc1ccc(C2CC(=O)c3c(cc(O)cc3OC3OC(CO)C(O)C(O)C3O)O2)cc1O (centres unmarked) [Hesperetin 5-O-glucoside] ... 37.1
3. COc1ccc(C2CC(=O)c3c(O)cc(OC4OC(COC5OC(C)C(O)C(O)C5O)C(O)C(O)C4O)cc3O2)cc1O (centres unmarked) [Hesperidin, hesperetin 7-O-rutinoside] ... 58.1
4. COc1ccc(C2CC(=O)c3c(O)cc(OC4OC(CO)C(O)C(O)C4OC4OC(C)C(O)C(O)C4O)cc3O2)cc1O (centres unmarked) [Neohesperidin, hesperetin 7-O-neohesperidoside] ... 144

###

# test.target: PTP1B (human recombinant) (Homo sapiens, UniProt P18031)
# Construct: purchased Biomol International LP (Plymouth Meeting, PA, USA)
# Sequence (P18031 1-435): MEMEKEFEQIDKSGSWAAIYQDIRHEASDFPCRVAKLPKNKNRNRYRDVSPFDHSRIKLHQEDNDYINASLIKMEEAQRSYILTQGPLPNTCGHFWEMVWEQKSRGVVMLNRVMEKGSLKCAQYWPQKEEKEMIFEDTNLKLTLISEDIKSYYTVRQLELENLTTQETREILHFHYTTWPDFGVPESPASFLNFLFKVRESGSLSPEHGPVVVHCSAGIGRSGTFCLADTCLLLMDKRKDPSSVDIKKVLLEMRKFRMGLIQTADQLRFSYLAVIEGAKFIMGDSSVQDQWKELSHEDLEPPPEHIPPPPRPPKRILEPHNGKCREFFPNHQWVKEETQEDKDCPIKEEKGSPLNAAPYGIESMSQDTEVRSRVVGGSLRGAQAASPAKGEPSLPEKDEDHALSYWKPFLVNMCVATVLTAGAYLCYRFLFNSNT
# test.summary: Kinetic analysis of PTP1B inhibition (Lineweaver–Burk and Dixon plots)
# Type: biochemical
# condition.description: determined by Lineweaver–Burk plots; pNPP 0.5, 1.0 and 2.0 mM
property.name: PTP1B type of inhibition

1) COc1ccc(C2CC(=O)c3c(O)cc(OC4OC(CO)C(O)C(O)C4OC4OC(C)C(O)C(O)C4O)cc3O2)cc1O (stereo not shown) [Neohesperidin, hesperetin 7-O-neohesperidoside] ... Uncompetitive
2) COc1ccc(C2CC(=O)c3c(cc(O)cc3OC3OC(CO)C(O)C(O)C3O)O2)cc1O (stereo not shown) [Hesperetin 5-O-glucoside] ... Mixed
3) COc1ccc(C2CC(=O)c3c(O)cc(OC4OC(COC5OC(C)C(O)C(O)C5O)C(O)C(O)C4O)cc3O2)cc1O (stereo not shown) [Hesperidin, hesperetin 7-O-rutinoside] ... Mixed
4) COc1ccc([C@@H]2CC(=O)c3c(O)cc(O)cc3O2)cc1O ... Uncompetitive

###

# test.target: PTP1B (human recombinant) (Homo sapiens, UniProt P18031)
# test.summary: Kinetic analysis of PTP1B inhibition (Lineweaver–Burk and Dixon plots)
# condition.description: determined by Dixon plots
pKi: −log10 of the molar value.
property.name: pKi

1) COc1ccc([C@@H]2CC(=O)c3c(O)cc(O)cc3O2)cc1O ... 3.53
2) COc1ccc(C2CC(=O)c3c(O)cc(OC4OC(CO)C(O)C(O)C4OC4OC(C)C(O)C(O)C4O)cc3O2)cc1O (stereo not shown) [Neohesperidin, hesperetin 7-O-neohesperidoside] ... 3.81
3) COc1ccc(C2CC(=O)c3c(O)cc(OC4OC(COC5OC(C)C(O)C(O)C5O)C(O)C(O)C4O)cc3O2)cc1O (stereo not shown) [Hesperidin, hesperetin 7-O-rutinoside] ... 4.30
4) COc1ccc(C2CC(=O)c3c(cc(O)cc3OC3OC(CO)C(O)C(O)C3O)O2)cc1O (stereo not shown) [Hesperetin 5-O-glucoside] ... 4.09
